Tested On: UniProtKB Q13191
Sequence (Q13191 40-426): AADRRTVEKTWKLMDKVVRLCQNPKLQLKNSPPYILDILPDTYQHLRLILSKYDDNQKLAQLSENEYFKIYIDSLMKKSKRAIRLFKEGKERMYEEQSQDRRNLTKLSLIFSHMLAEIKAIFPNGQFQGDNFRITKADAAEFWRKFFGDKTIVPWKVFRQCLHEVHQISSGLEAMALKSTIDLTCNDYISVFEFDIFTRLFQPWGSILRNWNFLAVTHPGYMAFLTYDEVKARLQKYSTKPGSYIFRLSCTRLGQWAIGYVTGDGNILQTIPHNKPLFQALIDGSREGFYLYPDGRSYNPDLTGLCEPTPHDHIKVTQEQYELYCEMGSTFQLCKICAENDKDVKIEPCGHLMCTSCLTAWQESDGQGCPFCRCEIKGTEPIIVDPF
Method Summary: Cbl-b LCK Ub TR-FRET assay (Cbl-b Lck HTRF)
Format: biochemical
Condition Label: Cbl-b LCK Ub TR-FRET, Example 121
Each entry below carries its recorded IC50.

Worked cases, IC50 given:
Enquiry: Form field: reported IC50 of Cn1cnnc1[C@@H](c1cccc(N2Cc3c(cc(CNCC4(C)CC4)cc3C(F)(F)F)C2=O)c1)C1COC1 (single isomer, unassigned)
Return: 6.6 nM

Enquiry: Another compound to check: CO[C@H]1C[C@](c2cccc(N3Cc4c(cc(CNC5CC6C(C5)C6(F)F)cc4C(F)(F)F)C3=O)c2)(c2nncn2C)C1 (some centres unmarked)
Return: 7 nM

Enquiry: Another compound to check: Cn1cnnc1[C@@H](c1cccc(N2Cc3c(cc(CN[C@@H]4C[C@@H]5C[C@@H]5C4)cc3C(F)(F)F)C2=O)c1)C1COC1 (single isomer, unassigned)
Return: 5.3 nM

Enquiry: Another compound to check: Cn1cnnc1[C@H](c1cccc(N2Cc3c(cc(CNC4(C)CCC4)cc3C(F)F)C2=O)c1)C1CC(F)C1 (some centres unmarked) [Compound 460]
Return: 610 nM

Enquiry: Another compound to check: Cn1cnnc1[C@]1(c2cccc(N3Cc4c(Cl)cc(CNC5(C)CCC5)cc4C3=O)c2)C[C@H](Cl)C1
Return: 5.5 nM

Others:
Enquiry: Form field: reported IC50 of CO[C@H]1C[C@](c2cccc(N3Cc4c(cc(CNCCC5CCC5(F)F)cc4C(F)(F)F)C3=O)c2)(c2nncn2C)C1 (some centres unmarked)
Return: 16 nM

Enquiry: Another compound to check: Cn1cnnc1[C@H](c1cccc(N2Cc3c(cc(CNC4(C)CCC4)cc3C(F)F)C2=O)c1)C1CC(F)C1 (some centres unmarked) [Compound 461]
Return: 360 nM

Enquiry: Another compound to check: CO[C@H]1C[C@](c2cccc(N3Cc4c(cc(CN[C@H]5[C@@H]6COC[C@@H]65)cc4C(F)(F)F)C3=O)c2)(c2nncn2C)C1
Return: 14 nM

Enquiry: Another compound to check: Cn1cnnc1[C@]1(c2cccc(N3Cc4c(cc(CNC5(C)CCC5)cc4C(F)(F)F)C3=O)c2)C[C@@](O)(C(F)F)C1
Return: 15 nM

Enquiry: Another compound to check: COCCC1(NCc2cc3c(c(C(F)(F)F)c2)CN(c2cccc([C@]4(c5nncn5C)C[C@H](OC)C4)c2)C3=O)CCC1
Return: 28 nM

Enquiry: Another compound to check: CO[C@H]1C[C@](c2cccc(N3Cc4c(cc(CNCC5(C)CC5)cc4C(F)(F)F)C3=O)c2)(c2nncn2C)C1
Return: 11 nM

Enquiry: Another compound to check: CO[C@H]1C[C@@](c2cccc(N3Cc4ccc(CNC5(C)CCC5)cc4C3=O)c2)(c2nncn2C)C1
Return: 730 nM

Enquiry: Another compound to check: CC1(NCc2cc3c(c(C(F)(F)F)c2)CN(c2cccc([C@H](C4COC4)n4ccnn4)c2)C3=O)CCC1 (single isomer, unassigned)
Return: ≥ 20000 nM

Enquiry: Another compound to check: Cn1cnnc1[C@@H](c1cccc(N2Cc3c(cc(CNCC(C)(C)F)cc3C(F)(F)F)C2=O)c1)C1COC1
Return: 6.5 nM

Enquiry: Another compound to check: Cn1cnnc1[C@]1(c2cccc(N3Cc4c(cc(CNC5(C)CCC5)cc4C(F)(F)F)C3=O)c2)C[C@@H](OC2CC2)C1
Return: 5.8 nM

Enquiry: Another compound to check: CC(C)CNCc1cc2c(c(C(F)(F)F)c1)CN(c1cccc([C@H](c3nncn3C)C3COC3)c1)C2=O (single isomer, unassigned)
Return: 6.5 nM

Enquiry: Another compound to check: CO[C@H]1C[C@](c2cccc(N3Cc4c(cc(CN5CCOCC5)cc4C(F)(F)F)C3=O)c2)(c2nncn2C)C1
Return: 480 nM
